Source listed as patent US7507717B2.

Molecular target: human noradrenaline transporter (hNET) (Homo sapiens, UniProt P23975)
Construct: expressed in transfected cells; host or cells: COS-7 cells (ATCC), transient transfection with metafectene
Sequence (P23975 whole entry): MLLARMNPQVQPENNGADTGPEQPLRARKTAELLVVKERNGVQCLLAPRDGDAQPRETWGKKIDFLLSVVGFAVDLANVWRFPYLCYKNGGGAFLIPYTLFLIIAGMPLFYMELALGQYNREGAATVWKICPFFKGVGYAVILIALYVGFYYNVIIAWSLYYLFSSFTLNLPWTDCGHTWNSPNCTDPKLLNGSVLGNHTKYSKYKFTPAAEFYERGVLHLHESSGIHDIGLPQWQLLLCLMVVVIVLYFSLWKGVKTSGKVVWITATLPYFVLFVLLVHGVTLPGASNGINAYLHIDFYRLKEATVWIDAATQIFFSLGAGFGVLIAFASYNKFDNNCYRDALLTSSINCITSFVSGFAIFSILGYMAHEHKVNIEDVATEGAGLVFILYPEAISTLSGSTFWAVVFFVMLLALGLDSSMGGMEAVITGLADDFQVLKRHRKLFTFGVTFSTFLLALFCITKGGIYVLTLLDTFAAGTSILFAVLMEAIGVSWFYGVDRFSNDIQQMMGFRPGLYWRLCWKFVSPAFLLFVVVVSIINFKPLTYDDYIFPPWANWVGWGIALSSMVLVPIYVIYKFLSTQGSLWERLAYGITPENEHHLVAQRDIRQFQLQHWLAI
Assay: biochemical
Format: binding
Settings: Av IC50 Displacement of 3H-nisoxetine from hNET
Residues, ends and D or L forms follow the SMILES beside them.
experimental.endpoint: pIC50
Answers are plain numbers, as −log10 of the molar value.

Answer briefly: pIC50 recorded on human noradrenaline transporter (hNET) (Homo sapiens, UniProt P23975) for CC[C@H](C)[C@H](NC(=O)CNC(=O)[C@@H](N)CC(N)=O)C(=O)N[C@H]1CSSC[C@@H](C(N)=O)NC(=O)[C@@H]2CCCN2C(=O)[C@H](Cc2c[nH]cn2)NC(=O)[C@@H]2CSSC[C@H](NC1=O)C(=O)NCC(=O)N[C@@H](Cc1ccc(O)cc1)C(=O)N[C@@H](CCCCN)C(=O)N[C@@H](CC(C)C)C(=O)N2 [compound 125] (HELM PEPTIDE1{N.G.I.C.C.G.Y.K.L.C.H.P.C.[am]}$PEPTIDE1,PEPTIDE1,4:R3-13:R3|PEPTIDE1,PEPTIDE1,5:R3-10:R3$$$V2.0)
5.85
